Data credit: patent US9163003B2

Below are compounds with their IC50 as measured on Human PARP1 (Homo sapiens (Human)).
Sequence (P09874 whole entry): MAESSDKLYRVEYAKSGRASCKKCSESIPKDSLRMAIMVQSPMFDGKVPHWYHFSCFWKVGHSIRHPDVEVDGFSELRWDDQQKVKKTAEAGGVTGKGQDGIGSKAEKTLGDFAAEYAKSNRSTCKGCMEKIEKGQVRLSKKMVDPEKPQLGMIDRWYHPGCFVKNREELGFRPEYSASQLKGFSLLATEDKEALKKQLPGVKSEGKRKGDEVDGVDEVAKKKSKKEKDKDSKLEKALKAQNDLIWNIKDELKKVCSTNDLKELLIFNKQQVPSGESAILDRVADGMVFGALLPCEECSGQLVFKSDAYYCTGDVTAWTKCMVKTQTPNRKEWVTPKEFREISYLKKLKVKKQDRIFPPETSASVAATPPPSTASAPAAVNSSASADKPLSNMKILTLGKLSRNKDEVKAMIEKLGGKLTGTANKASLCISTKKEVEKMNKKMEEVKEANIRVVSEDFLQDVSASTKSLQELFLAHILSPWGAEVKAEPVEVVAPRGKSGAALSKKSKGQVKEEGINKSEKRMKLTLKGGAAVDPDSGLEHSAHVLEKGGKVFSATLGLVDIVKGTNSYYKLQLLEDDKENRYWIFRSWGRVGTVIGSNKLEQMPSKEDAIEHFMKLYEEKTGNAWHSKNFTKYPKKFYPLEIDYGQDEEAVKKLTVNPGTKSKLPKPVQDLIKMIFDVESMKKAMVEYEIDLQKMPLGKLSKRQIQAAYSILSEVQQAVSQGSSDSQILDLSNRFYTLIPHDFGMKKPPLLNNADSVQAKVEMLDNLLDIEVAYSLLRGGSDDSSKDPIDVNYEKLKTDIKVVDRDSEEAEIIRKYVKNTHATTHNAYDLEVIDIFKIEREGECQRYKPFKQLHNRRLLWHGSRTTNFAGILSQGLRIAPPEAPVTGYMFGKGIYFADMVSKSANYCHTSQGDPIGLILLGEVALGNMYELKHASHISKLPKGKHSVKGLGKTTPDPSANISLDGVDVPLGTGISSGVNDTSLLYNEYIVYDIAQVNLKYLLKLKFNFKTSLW

A selection of reference data follows.
[in] Would you please give the reported IC50 of O=C(c1ccc(Cl)cc1)C1CCN(C2CCN(Cc3nc4c(c(=O)[nH]3)COCC4)C2=O)CC1 (centres unmarked) with Human PARP1 (Homo sapiens (Human))?
[out] 16.6 µM

[in] Would you please give the reported IC50 of O=C(c1ccc(F)cc1)C1CCN(C2CCN(Cc3nc4c(c(=O)[nH]3)COCC4)C2=O)CC1 (centres unmarked) with Human PARP1 (Homo sapiens (Human))?
[out] 23.6 µM

[in] Would you please give the reported IC50 of CCc1cc(=O)[nH]c(CN2CCC(N3CCC(C(=O)c4ccc(OC)cc4)CC3)C2=O)n1 (centres unmarked) with Human PARP1 (Homo sapiens (Human))?
[out] > 19 µM

[in] Would you please give the reported IC50 of "O=C(c1ccc(F)cc1)C1CCN([C@H]2CCN(Cc3nc4c(c(=O)[nH]3)COCC4)C2=O)CC1" with Human PARP1 (Homo sapiens (Human))?
[out] 37.4 µM

[in] Would you please give the reported IC50 of COc1ccc(C(=O)C2CCN(C3CCN(Cc4ncc(C)c(=O)[nH]4)C3=O)CC2)cc1 (centres unmarked) with Human PARP1 (Homo sapiens (Human))?
[out] > 19 µM

Further cases:
[in] Would you please give the reported IC50 of COc1ccc(C(=O)C2CCN(C3CCN(Cc4nc5c(cnn5C)c(=O)[nH]4)C3=O)CC2)cc1 (centres unmarked) with Human PARP1 (Homo sapiens (Human))?
[out] > 19 µM

[in] Would you please give the reported IC50 of "COc1ccc(C(=O)C2CCN([C@H]3CCN(Cc4nc5ccccc(=O)c5[nH]4)C3=O)CC2)cc1C" with Human PARP1 (Homo sapiens (Human))?
[out] 20.2 µM

[in] Would you please give the reported IC50 of "COc1ccc(C(=O)C2CCN([C@H]3CCN(Cc4nc5c(c(=O)[nH]4)COCC5)C3=O)CC2)cc1" with Human PARP1 (Homo sapiens (Human))?
[out] 21 µM

----------
pIC50 values, listed per item
- Tested on: Non-small lung cancer ABC-1 cells
- Experiment notes: Cellular proliferation assay, ABC-1 cells (CellTiter-Glo)
- Type: cell-based
- Setup conditions: Homo sapiens, 72 h, 3 days of compound treatment
Scale: pIC50 equals -log10([C]), with [C] in mol/L.

[in] Report measured pIC50; entry is COc1ccc(C(=O)C2CCN(C3CCN(Cc4ncc(C)c(=O)[nH]4)C3=O)CC2)cc1 (centres unmarked)
[out] 6.93

[in] Report measured pIC50; entry is "COc1ccc(C(=O)C2CCN([C@@H]3CCN(Cc4nc5ccccc(=O)c5[nH]4)C3=O)CC2)cc1"
[out] 7.07

[in] Report measured pIC50; entry is COc1ccc(C(=O)C2CCN(C3CCN(Cc4nc5c(c(=O)[nH]4)CCC5)C3=O)CC2)cc1 (centres unmarked)
[out] 7.74

Further cases:
[in] Report measured pIC50; entry is COc1ccc(C(=O)C2CCN(C3CCN(CC(=O)Nc4noc5ncccc45)C3=O)CC2)cc1 (centres unmarked)
[out] 5.10

[in] Report measured pIC50; entry is "COc1ccc(C(=O)C2CCN([C@H]3CCN(Cc4nc5ccccc(=O)c5[nH]4)C3=O)CC2)cc1C"
[out] 9.10

[in] Report measured pIC50; entry is COc1ccc(C(=O)C2CCN(C3CCN(Cc4nc5ccsc5c(=O)[nH]4)C3=O)CC2)cc1 (centres unmarked)
[out] 5.83

[in] Report measured pIC50; entry is COc1ccc(C(=O)C2CCN(C3CCN(Cc4nc5c(cnn5C)c(=O)[nH]4)C3=O)CC2)cc1 (centres unmarked)
[out] 7.37

[in] Report measured pIC50; entry is O=C(c1ccc(F)cc1)C1CCN(C2CCN(Cc3nc4c(c(=O)[nH]3)COCC4)C2=O)CC1 (centres unmarked)
[out] 6.54
